# ASSAY SYSTEM: Protein kinase C (PKC) (Homo sapiens) (UniProt O94806+P41743+P17252+P05129+Q05655+P05771+Q05513+Q02156+P24723+Q15139+Q04759)
# PROTOCOL NOTES: Activation of partially purified HeLa cell protein kinase C, 32P incorporation into calf thymus histone(III-S).
The following compounds are shown together with reported Activity (pM min-1 (mg of protein)-1) values.
READOUT NAME: Activity (pM min-1 (mg of protein)-1)

[
  {
    "COMPOUND STRUCTURE STRING": "CCCCCCc1ccc2c3c(c[nH]c13)C[C@@H](CO)NC(=O)[C@H](C(C)C)N2C",
    "RECORDED RESULT": 606
  },
  {
    "COMPOUND STRUCTURE STRING": "CC(C)[C@H]1C(=O)N[C@H](CO)Cc2c[nH]c3cccc(c23)N1C",
    "RECORDED RESULT": 454
  },
  {
    "COMPOUND STRUCTURE STRING": "CC(C)=CCCCc1ccc2c3c(c[nH]c13)C[C@@H](CO)NC(=O)[C@H](C(C)C)N2C",
    "RECORDED RESULT": 763
  },
  {
    "COMPOUND STRUCTURE STRING": "CC(C)[C@H]1C(=O)N[C@@H](CO)Cc2c[nH]c3c(CCCCO)ccc(c23)N1C",
    "RECORDED RESULT": 163
  },
  {
    "COMPOUND STRUCTURE STRING": "CC(C)=CCCCc1ccc2c3c(c[nH]c13)C[C@H](CO)NC(=O)[C@H](C(C)C)N2C",
    "RECORDED RESULT": 415
  },
  {
    "COMPOUND STRUCTURE STRING": "CC(C)[C@H]1C(=O)N[C@H](CO)Cc2c[nH]c3c(CCCCO[Si](C)(C)C(C)(C)C)ccc(c23)N1C",
    "RECORDED RESULT": 703
  },
  {
    "COMPOUND STRUCTURE STRING": "CCCCCCCCCCCCCC(=O)O[C@@H]1[C@@H](C)[C@@]2(O)[C@@H](C=C(CO)C[C@]3(O)C(=O)C(C)=C[C@@H]23)[C@@H]2C(C)(C)[C@]12OC(C)=O",
    "RECORDED RESULT": 899
  },
  {
    "COMPOUND STRUCTURE STRING": "CC(C)[C@H]1C(=O)N[C@H](CO)Cc2c[nH]c3c(CCCCO)ccc(c23)N1C",
    "RECORDED RESULT": 256
  },
  {
    "COMPOUND STRUCTURE STRING": "CC(C)[C@H]1C(=O)N[C@@H](CO)Cc2c[nH]c3c(CCCCO[Si](C)(C)C(C)(C)C)ccc(c23)N1C",
    "RECORDED RESULT": 403
  }
]

Cited source: ChEMBL document CHEMBL1125176
